Taken from paper PMC10499821.

# tgt: Nsp9
endpoint label: pKd
The meaning of pKd here: minus log10 of the concentration in molar units.

Answered cases to consult:
Asked: Value lookup for pKd; key = MQGLSLDAASQPSKGY [MVB12A 166-180]
Given back: 3.35

Asked: Value lookup for pKd; key = YPAHPDGFALGRAPLA [LMTK3 22-36]
Given back: 4.47

Asked: Value lookup for pKd; key = SSGLSIGTVFQSSSPY [NEK9 737-751]
Given back: 3.95

Asked: Value lookup for pKd; key = MNIQEQGFPLDLGASY [AXIN1 1-15]
Given back: 4.31

Asked: Value lookup for pKd; key = NPYSEGQFLDEHHSVN [RIF1 1780-1795]
Given back: 4.06

Next, consider the following binder.
Asked: Value lookup for pKd; key = FQGAWLGCPEPWEPLL [NOTCH4 1605-1620]
Given back: 3.90
